- Substrate: CC(C)=CCC/C(C)=C/CC/C(C)=C/CO[P@@](=O)(O)OP(=O)(O)O
- assay info: purified protein
- Format: biochemical, Coniophora puteana
- run conditions: 25 °C, FPP 0-70 µM in methanol, 0.8–1.2 µM enzyme
experimental endpoint: kcat (s⁻¹)

Copu9 (Coniophora puteana RWD-64-598 SS2; N228A) (protein, full-length, codon-optimized, N-terminal hexa-His tag (pET-M11), expressed in E. coli BL21 RIL DE3; homodimer; 13 N-terminal residues not visible in crystal) MSPTATFTTTSSEENAPTKFILPDLVSDCTYPLLLNDNCEPVARASEQWLIAGARLQEPRRTKFMGLLAGELTAACYPHADASHLRVCVDFMNWLFNMDDWLDDFDVDDTWGMRHCCLGAFRDPVGFETDKLGGLMSKSFFSRFRQDGGPGCTERFIHTMDLFFIAVAQQAGDRANGITPDLESYITVRRDTSGCKPCFALIEYAAGIDLPDHVIYHPTLAAMEEATADLVTWSNDIFSYNKEQVTDDTHNMIPVLMRERGLDLQGAVDFVGRLCKGTIERFETERARLPSWGPELDAQVQTYIEGLQNWIVGSLHWSFDSHRYFGKDGHAVKKHRIVKLLPKRVPQQA | 0.0262
Copu9 (Coniophora puteana RWD-64-598 SS2; P197C) (protein, full-length, codon-optimized, N-terminal hexa-His tag (pET-M11), expressed in E. coli BL21 RIL DE3; homodimer; 13 N-terminal residues not visible in crystal) MSPTATFTTTSSEENAPTKFILPDLVSDCTYPLLLNDNCEPVARASEQWLIAGARLQEPRRTKFMGLLAGELTAACYPHADASHLRVCVDFMNWLFNMDDWLDDFDVDDTWGMRHCCLGAFRDPVGFETDKLGGLMSKSFFSRFRQDGGPGCTERFIHTMDLFFIAVAQQAGDRANGITPDLESYITVRRDTSGCKCCFALIEYAAGIDLPDHVIYHPTLAAMEEATNDLVTWSNDIFSYNKEQVTDDTHNMIPVLMRERGLDLQGAVDFVGRLCKGTIERFETERARLPSWGPELDAQVQTYIEGLQNWIVGSLHWSFDSHRYFGKDGHAVKKHRIVKLLPKRVPQQA | 0.0381
Copu9 (Coniophora puteana RWD-64-598 SS2; C76V) (protein, full-length, codon-optimized, N-terminal hexa-His tag (pET-M11), expressed in E. coli BL21 RIL DE3; homodimer; 13 N-terminal residues not visible in crystal) MSPTATFTTTSSEENAPTKFILPDLVSDCTYPLLLNDNCEPVARASEQWLIAGARLQEPRRTKFMGLLAGELTAAVYPHADASHLRVCVDFMNWLFNMDDWLDDFDVDDTWGMRHCCLGAFRDPVGFETDKLGGLMSKSFFSRFRQDGGPGCTERFIHTMDLFFIAVAQQAGDRANGITPDLESYITVRRDTSGCKPCFALIEYAAGIDLPDHVIYHPTLAAMEEATNDLVTWSNDIFSYNKEQVTDDTHNMIPVLMRERGLDLQGAVDFVGRLCKGTIERFETERARLPSWGPELDAQVQTYIEGLQNWIVGSLHWSFDSHRYFGKDGHAVKKHRIVKLLPKRVPQQA | 0.0291
Copu9 (Coniophora puteana RWD-64-598 SS2; C195V) (protein, full-length, codon-optimized, N-terminal hexa-His tag (pET-M11), expressed in E. coli BL21 RIL DE3; homodimer; 13 N-terminal residues not visible in crystal) MSPTATFTTTSSEENAPTKFILPDLVSDCTYPLLLNDNCEPVARASEQWLIAGARLQEPRRTKFMGLLAGELTAACYPHADASHLRVCVDFMNWLFNMDDWLDDFDVDDTWGMRHCCLGAFRDPVGFETDKLGGLMSKSFFSRFRQDGGPGCTERFIHTMDLFFIAVAQQAGDRANGITPDLESYITVRRDTSGVKPCFALIEYAAGIDLPDHVIYHPTLAAMEEATNDLVTWSNDIFSYNKEQVTDDTHNMIPVLMRERGLDLQGAVDFVGRLCKGTIERFETERARLPSWGPELDAQVQTYIEGLQNWIVGSLHWSFDSHRYFGKDGHAVKKHRIVKLLPKRVPQQA | 0.0398

Entry source: paper PMC9018054
